Data origin: paper PMC10054552

Give measured log10(IC50) for each item. Keep answers brief.
- Test system: MET1 cells
- assay-info: Phototoxicity assay in MET1 cells (irradiation 2.5 J/cm², resazurin)
- Format: cell-based, human
- setup-conditions: Homo sapiens, MET-1, light or radiation study; MET1 cells, treated 24 h, 254 nm light, 2.5 J/cm²; read-out: IC50 254 nm
Heads up, the numbers here are log10 of IC50 in µM units.

As a guide, the following entries are already answered.
O=c1c(O)c(-c2ccc(O)c(O)c2)oc2cc(O)cc(O)c12; 2.31
CN(C)c1ccc(C(=C2C=CC(=[N+](C)C)C=C2)c2ccc(N(C)C)cc2)cc1; 0.18

Parameter requested: log10(IC50). Apply to each item below.
1. CN(C)c1ccc2nc3ccc(=[N+](C)C)cc-3sc2c1
2. c1cnc2c(c1)ccc1cccnc12
3. CN(C)c1ccc2cc3ccc(N(C)C)cc3nc2c1

[0.63, 0.78, 0.85]

Record request: log10(IC50) value, item COc1cc(/C=C/C(=O)CC(=O)/C=C/c2ccc(O)c(OC)c2)ccc1O
0.97

====

- Test system: HaCaT cells
- assay-info: Cytotoxicity (resazurin cell viability) in HaCaT cells
- Type: cell-based, human
- setup-conditions: Homo sapiens; HaCaT cells, 48 h exposure, 1.25-320 µM; read-out: IC50 HaCaT Cells 48 h
pIC50: −log10 of the molar value.
Mark condition not met for pIC50 values under 5, and condition met for everything at or above.

Cc1ccc2ccc3ccc(C)nc3c2n1; condition not met
CN(C)c1ccc2cc3ccc(N(C)C)cc3nc2c1; condition met

Does pIC50 meet or surpass 5 for c1cnc2c(c1)ccc1cccnc12 ?
condition met

Item CN(C)c1ccc(C(=C2C=CC(=[N+](C)C)C=C2)c2ccc(N(C)C)cc2)cc1 with pIC50 of 5 or above?
condition met

Could you verify whether the entry CN(C)c1ccc2nc3ccc(=[N+](C)C)cc-3sc2c1 shows pIC50 of no less than 5?
condition met

Is pIC50 for O=c1c(O)c(-c2ccc(O)c(O)c2)oc2cc(O)cc(O)c12 at or above 5?
condition not met

====

- System: WM983b cells
- assay-info: Phototoxicity assay in WM983b cells (irradiation 2.5 J/cm², resazurin)
- Type: cell-based
- setup-conditions: Homo sapiens, light or radiation study, treated 24 h, without irradiation, read-out: IC50 non-irradiated samples
property: pIC50
Give bare numbers, as −log10 of the molar value.

CN(C)c1ccc2cc3ccc(N(C)C)cc3nc2c1; 4.76

In the following, a different compound is considered.
State the recorded pIC50 for this entry: CN(C)c1ccc2nc3ccc(=[N+](C)C)cc-3sc2c1
5.14

====

- assay-info: Phototoxicity assay in MET1 cells (irradiation 2.5 J/cm², resazurin)
- Format: cell-based, human
- setup-conditions: human, MET1 squamous cell carcinoma cells; MET1 cells, dark, 1.25 µM; read-out: relative cell viability, dark condition, lowest concentration
property: viability at 24 h, 1.25 µM

Any idea what viability at 24 h, 1.25 µM was measured for CN(C)c1ccc(C(=C2C=CC(=[N+](C)C)C=C2)c2ccc(N(C)C)cc2)cc1 [Gentian violet, gentian violet] ?
< 60%

====

- Tested on: MET1 cells
- assay-info: Cytotoxicity (resazurin cell viability) in MET1 cells
- Assay type: cell-based, human
- setup-conditions: Homo sapiens, MET-1, 48 h, read-out: IC50 MET1 Cells 48 h
property: pIC50
Numbers only, as −log10 of the molar value.

Test system MET1 cells; read-out pIC50; what value for c1ccc(-c2ccccn2)nc1 ?
4.01
